B1: Pistol ribozyme (parent)
chain: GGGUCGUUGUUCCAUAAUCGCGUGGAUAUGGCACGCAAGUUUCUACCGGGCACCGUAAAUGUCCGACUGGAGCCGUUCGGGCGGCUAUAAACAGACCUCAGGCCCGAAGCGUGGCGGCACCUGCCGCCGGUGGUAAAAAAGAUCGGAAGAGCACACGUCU

# Variants of: B1
# Assay Notes: aptazyme ON/OFF ratio, guanine; higher = stronger switching; co-transcriptional cleavage with and without guanine
Measurement Label: aptazyme ON/OFF ratio
One number for each entry.

U7G U8G G9A U10A U11C C12A C13G = 1.17
G9A U10A U11C = 1.08
U7C U8C G9A U11A C12U = 1.06
U7A U8C G9A U10A U11C C12U C13U = 1.05
U7A U8A G9U U10C C12A C13A = 1.11

Give one value of aptazyme ON/OFF ratio per listed variant.
1. U10A U11A C13G
2. U7C U8C G9U U10G C12A C13G
3. U8G G9A U11A C12A C13A
4. U7C U8C G9C U10A C13G
5. U7C U8G G9C U10A U11A C12G C13A
6. U7G U8C G9A U11C C12A C13G
7. U7C U8A G9U U10C U11A C12U

[1.12, 1.1, 1.19, 1.15, 1.12, 1.17, 1.12]
